Origin of the recorded values: patent US20110250135A1

ASSAY_TEXT: Biodistribution: organ distribution of F-18 signal in mice
Type: in vivo, male NMRI mice
CONDITION: tail, 5 min post i.v. injection
QUANTITY_NAME: Organ distribution of F-18 signal, tail (% ID/g)
Write down the numeric answer in % ID/g and omit the unit.

Which Organ distribution of F-18 signal, tail reading was recorded for the compound O=C(NCC(=O)N1CCN(c2ccc(OCc3ccccc3)cc2)CC1)c1cccc(OCC[18F])c1 ?
9.06

Which Organ distribution of F-18 signal, tail reading was recorded for the compound O=C(NCC(=O)N1CCN(c2ccc(OCc3ccccc3)cn2)CC1)c1ccnc([18F])c1 [Example 14f] ?
4.06

Which Organ distribution of F-18 signal, tail reading was recorded for the compound O=C(NCC(=O)N1CCN(c2ccc(OCc3ccccc3)cc2)CC1)c1cccnc1[18F] [Example 12c] ?
6.80

Which Organ distribution of F-18 signal, tail reading was recorded for the compound O=C(NCC(=O)N1CCN(c2ccc(OCc3ccccc3)cc2)CC1)c1ccnc([18F])c1 [Example 11c] ?
5.41

Which Organ distribution of F-18 signal, tail reading was recorded for the compound O=C(NCC(=O)N1CCN(c2ccc(OCc3ccccc3)cc2)CC1)c1ccc([18F])nc1 [Example 10e] ?
6.65
